molecular target: DRB1*0901 (Homo sapiens, UniProt P01903+P01911, A100R/A103E/D57H/D86V/F55Y/F60I/F76Y/I96F/K127E/L162R/M171V/P40D/Q125H/Q99R/R33Q/R42F/S133A/S66N/T210M/V115G/W38K/Y107V/Y59G/Y89S); experiment: biochemical; format: binding
No end group written: not given here.
The entries below are paired with their reported pIC50.
Would you please state pIC50, meaning minus log10 of the concentration in mol/L, as a bare number?

Solved cases (7 shown):
ordered_residues	pIC50
NCNSNTTPIVHLKGD [Peptide 1601.08]	5.50
LNTVKIPPTVQISTG [Peptide 90.0028]	5.16
VKFLRYQQIEFVSFL [Peptide 89.0052]	5.49
FIHFLQGAIISFVNS [Peptide 89.0088]	6.06
LKSFLKGTPKKNCLV [Peptide 89.0035]	5.57
LYGVSFMELIRPFQS [Peptide 89.0041]	7.19
MNYVVWDSIYYITET [Peptide 90.0214]	6.05

Give its pIC50 value. Item: PMCMMIEPPKLRSTA [Peptide 90.0034]
4.95

====

In this section we review reported IC50 values for a set of sequences.
biological target: HLA-A1 (A*0101) (Homo sapiens, UniProt P04439, A114D/A174V/A182V/D101N/D185E/E176A/E190D/L180R/Q94H/R68K/S129P/T187R/V100A/V91M/W191G); test: biochemical; format: binding
No end group written: not given here.
Form entry: value (nM) — number only.

ordered_residues	unit_symbol	IC50
NTDILTVTY [Peptide 1593.17]	nM	22
ISNYTDTIY [Peptide 9015.0007]	nM	104
LFDQLIHLY [Peptide 9018.0027]	nM	83

May I ask what IC50 has been recorded for LTHFLLLKY [Peptide 9012.0134] ?
32

Which measured IC50 value corresponds to GTDCNGWFY [Peptide 1593.01] ?
40

// query IC50 value for entry DSVQILVGY [Peptide 86.0147]
1930

Entry under review: VSDRANGWFY [Peptide 9018.0012] . Reported IC50?
4.3

Need IC50, item LTDQLIHLY [Peptide 9018.0026]
0.53

Quick one: IC50 of VTIEWRLRRY [Peptide 9018.0015] ?
19

Returns the measured IC50 for the input sequence. Input: SIDWRQRRY [Peptide 9018.0018]
43

Quick check: IC50 of CVSHRGLYY [Peptide 88.0401] ?
108

====

molecular target: DR7 (DRB1*0701) (Homo sapiens, UniProt P01903+P01911, A100R/A102G/A103Q/D57E/D86V/E43K/F76Y/K127E/L162R/M171V/P40G/Q125H/Q99D/R33Q/R42Y/R54Q/S133A/S66F/T210M/V115G/Y107V/Y59L/Y89S); test: biochemical; assay type: binding
quantity_kind: pIC50
Quick note: pIC50 values are minus log10 of concentrations in mol/L.

Tell me the measured pIC50 of CSCC[C@H](NC(=O)[C@H](CS)NC(=O)[C@H](CC(N)=O)NC(=O)[C@H](CC(=O)O)NC(=O)[C@H](CCCCN)NC(=O)[C@H](CC(N)=O)NC(=O)CN)C(=O)N[C@H](C(=O)N[C@@H](Cc1ccc(O)cc1)C(=O)N[C@H](C(=O)N[C@@H](C)C(=O)N[C@@H](Cc1c[nH]c2ccccc12)C(=O)N[C@@H](CC(=O)O)C(=O)N[C@@H](CO)C(=O)N[C@H](C(=O)O)C(C)C)C(C)C)[C@@H](C)O [Peptide 1601.09] , please.
5.36

These data points were gathered from patent US9340577B2.
